Give TGI for every item shown.
tested on: KM12 colon; test: NCI tumour cell line growth inhibition, 48 h
Where a SMILES comes first, the peptide text is derived from it. [ ]: non-standard residue; d: D form. The star is where a group is joined. X28 = COC1=CC(=O)N(C(=O)[C@@H](O*)C(C)C)[C@H]1Cc1ccccc1; NMeV = CN[C@H](C(=O)O)C(C)C; Hexanoyl = CCCCCC(=O)*

MOLECULE | ASSAY TARGET | TGI
CC(C)c1cc(-c2n[nH]c(=O)n2-c2ccc3c(ccn3C)c2)c(O)cc1O | KM12 colon | 0.062 µM
CC#C[C@]1(O)CC[C@H]2[C@@H]3CCC4=CC(=O)CCC4=C3[C@@H](c3ccc4c(c3)OCO4)C[C@@]21C | KM12 colon | 299 µM
CCCNC(=O)c1cc(NC(=O)c2cc(NC(=O)/C=C/c3ccccc3)c(OC)c(OC)c2)c(OC)c(OC)c1 | KM12 colon | 41.8 µM
COC(=O)[C@H](C[C@H](Cc1ccccc1)NC(=O)c1csc([C@@H](C[C@H](C(C)C)N(C)C(=O)[C@@H](NC(=O)[C@H]2CCCCN2C)C(C)C)OC(C)=O)n1)NC(=O)OCc1ccccc1 | KM12 colon | > 9 µM
CCOC(=O)c1cc(NS(=O)(=O)c2ccccc2)cc(C(=O)OCC)c1 | KM12 colon | > 100 µM
COc1ccc2nc(-n3c(/C=C/c4ccccc4O)nc4ccccc4c3=O)sc2c1 | KM12 colon | > 100 µM

# return TGI for each item in the list
1. O=C(C1OC1c1ccc(O)cc1)C12CC3CC(CC(C3)C1)C2 (stereo not drawn)
2. Cc1nc(N)nc(N)c1-c1ccc(Cl)c(Cl)c1
3. CCOC(=O)c1c2c(n3ccccc13)C(=O)c1ccccc1C2=O
4. CCOC(=O)N(Cc1cccs1)c1cc(OC)c(OC)c(OC)c1
5. O=C(O)/C=C\C(=O)N1C/C(=C\c2ccccc2Cl)C(=O)/C(=C/c2ccccc2Cl)C1
6. O=CC(=C(I)I)c1ccccc1
7. CCN(CC)CCC(=O)c1ccc(Oc2ccc(Cl)cc2)cc1
8. CCCCCC(=O)N[C@H](C(=O)N[C@H](C(=O)N(C)[C@H](C(=O)N1CCC[C@H]1C(=O)N1CCC[C@H]1C(=O)O[C@H](C(=O)N1C(=O)C=C(OC)[C@@H]1Cc1ccccc1)C(C)C)C(C)C)C(C)C)C(C)C (Hexanoyl-VV[NMeV]PP-X28)

# output
1: > 100 µM; 2: > 100 µM; 3: > 100 µM; 4: > 100 µM; 5: 3.12 µM; 6: 12.7 µM; 7: 32.2 µM; 8: > 100 µM

# return TGI for each item in the list
1. NCCOCCOCCNc1nc(Cc2ccccc2)nc(NCCCN2CCCC2=O)n1
2. COc1cccc(N=Cc2cc3cc(Br)ccc3nc2Cl)c1
3. COc1ccc(-c2csc(N(C(=O)N3CCN(c4cc5c(cc4F)c(=O)c(C(=O)O)cn5C4CC4)CC3)c3ccccc3)n2)cc1
4. CS(=O)(=O)N1CC(CCl)c2ccc([N+](=O)[O-])cc21 (stereo not drawn)
5. CN1CC[C@@]2(c3cccc(O)c3)CC(=O)/C(=C/c3ccccc3)[C@H]1C2

# output
> 100 µM
> 50 µM
> 100 µM
> 100 µM
> 30.4 µM

# return TGI for each item in the list
1. O=C(/C=C/c1csc(-c2ccccc2)n1)NCc1ccc(C(=O)NCCc2ccccc2)cc1
2. Nc1ncnc2ccc(Sc3ccc4ncnc(N)c4c3)cc12

# output
1. > 100 µM
2. > 100 µM

# return TGI for each item in the list
1. COc1ccc(-c2n/c(=C\c3c(O)[nH]c4ccc(OC)cc34)cc3c2=Nc2ccccc2-3)cc1
2. O=C(/C=C/c1ccccc1)c1cc(Br)ccc1O

# output
["> 100 µM", "25.7 µM"]

====

tested on: UACC-62 melanoma; experiment: NCI tumour cell line growth inhibition, 48 h
Where a SMILES comes first, the peptide text is derived from it. [ ]: non-standard residue; d: D form. The star is where a group is joined. X28 = COC1=CC(=O)N(C(=O)[C@@H](O*)C(C)C)[C@H]1Cc1ccccc1; NMeV = CN[C@H](C(=O)O)C(C)C; Hexanoyl = CCCCCC(=O)*
ENDPOINT: TGI

Observe how each entry below is paired with its result.
MOLECULE | TGI
N=c1oc2c(Cl)cc(Cl)cc2cc1C(=O)Nc1cccc2ccccc12 | > 100 µM
CC1=Nc2ccccc2S/C1=C(/C)NNC(=O)C(N)=O | > 100 µM

# return TGI for each item in the list
1. CCCCCC(=O)N[C@H](C(=O)N[C@H](C(=O)N(C)[C@H](C(=O)N1CCC[C@H]1C(=O)N1CCC[C@H]1C(=O)O[C@H](C(=O)N1C(=O)C=C(OC)[C@@H]1Cc1ccccc1)C(C)C)C(C)C)C(C)C)C(C)C (Hexanoyl-VV[NMeV]PP-X28)
2. CCSCCC(N)C(=O)O (configuration not stated)
3. COc1ccc(-c2csc(N(C(=O)N3CCN(c4cc5c(cc4F)c(=O)c(C(=O)O)cn5C4CC4)CC3)c3ccccc3)n2)cc1
4. Cc1csc(=S)n1OC(=O)NC1CCCCC1
5. CCOC(=O)c1ccc(N=C2C(=S)N(c3ccc(C(=O)OCC)cc3)C(=N)N2/N=C/c2ccccc2)cc1

# output
1. > 100 µM
2. > 100 µM
3. 8.91 µM
4. > 67.2 µM
5. 38.3 µM

# return TGI for each item in the list
1. Cc1ccc(C2=Nc3cccc4cccc(c34)N2)cc1
2. CC(C)c1cc(-c2n[nH]c(=O)n2-c2ccc3c(ccn3C)c2)c(O)cc1O
3. Cc1ccc(N=Cc2ccc3c(c2)OCO3)cc1C
4. CN(C)C(=O)OC(Cn1cncn1)c1ccc(Cl)cc1Cl (configuration not stated)
5. CCOC(=O)c1c(N2CCCC2)nsc1Nc1ccc(F)cc1

# output
1. > 100 µM
2. 0.224 µM
3. > 100 µM
4. > 100 µM
5. > 100 µM

====

Give TGI for every item shown.
system: SF-295 CNS; experiment: NCI tumour cell line growth inhibition, 48 h
Where a SMILES comes first, the peptide text is derived from it. [ ]: non-standard residue; d: D form. The star is where a group is joined. X28 = COC1=CC(=O)N(C(=O)[C@@H](O*)C(C)C)[C@H]1Cc1ccccc1; NMeV = CN[C@H](C(=O)O)C(C)C; Hexanoyl = CCCCCC(=O)*

Observe how each entry below is paired with its result.
MOLECULE | TGI
NCCOCCOCCNc1nc(Cc2ccccc2)nc(NCCCN2CCCC2=O)n1 | > 100 µM
Cn1c(=O)c2c(nc(-n3nc(-c4ccc(Cl)cc4)cc3N)n2C)n(C)c1=O | > 100 µM
CCCCCC(=O)N[C@H](C(=O)N[C@H](C(=O)N(C)[C@H](C(=O)N1CCC[C@H]1C(=O)N1CCC[C@H]1C(=O)O[C@H](C(=O)N1C(=O)C=C(OC)[C@@H]1Cc1ccccc1)C(C)C)C(C)C)C(C)C)C(C)C (Hexanoyl-VV[NMeV]PP-X28) | > 100 µM
N#Cc1c(N2CCCC2)[nH]c(=O)c(C(c2c(Cl)cccc2Cl)c2c(O)c(C#N)c(N3CCCC3)[nH]c2=O)c1O | 37.4 µM
c1ccc([P+](Cc2ccc(C[P+](c3ccccc3)(c3ccccc3)c3ccccc3)cc2)(c2ccccc2)c2ccccc2)cc1 | > 100 µM

# return TGI for each item in the list
1. Cn1c(=S)[nH]c2sc3c(c2c1=O)CCSC3
2. O=C(/C=C/c1ccccc1)/C=N/N1C(=S)N(c2ccccc2)C(=Nc2ccccc2)C1=Nc1ccccc1

# output
["97.3 µM", "> 100 µM"]

Recorded result, "COc1cccc(-n2ncc3c(N/N=C/c4ccc(C(=O)NCCN(C)C)cc4)ncnc32)c1" , TGI: 7.93 µM

====

test system: UACC-62 melanoma; assay: NCI tumour cell line growth inhibition, 48 h
ENDPOINT: TGI

COMPOUND | TGI
C=CCNc1nc(C#N)c(N)s1 | > 10 µM

# return TGI for each item in the list
1. ONc1ncnc2nc[nH]c12
2. O=S(=O)(O)c1ccc2cccc(N=Nc3c(O)ccc4ccccc34)c2c1

# output
> 100 µM
> 100 µM

====

tested on: MCF7 breast; assay: NCI tumour cell line growth inhibition, 48 h
ENDPOINT: TGI (µM)
Answers are plain numbers, in µM.

MOLECULE | TGI / µM
CN1CC[C@@]2(c3cccc(O)c3)CC(=O)/C(=C/c3ccccc3)[C@H]1C2 | 10.3
CCCC(C)c1cc(Cc2cc(Cl)cc(Cl)c2O)c(O)c(Cc2cc(Cl)cc(Cl)c2O)c1 (centres undefined) | 10.2
O=C1C(Cl)=C(OCCCCl)C(=O)c2c(O)ccc(O)c21 | 3.12

Recorded result, "CCOC(=O)c1ccc(N=C2C(=S)N(c3ccc(C(=O)OCC)cc3)C(=N)N2/N=C/c2ccccc2)cc1" , TGI: 28.5
